Test system: Staphylococcus aureus
method.summary: Antibacterial activity against PVL-positive and non-typable methicillin-resistant Staphylococcus aureus 1110301981H-T034 after 24 hrs by broth dilution method
Assay type: functional
Square brackets hold non-standard residues; d marks the D form. Peptide text beside a SMILES is read from it. Orn = NCCC[C@H](N)C(=O)O

- compound: "CC(C)[C@@H]1NC(=O)[C@H](CCCN)NC(=O)[C@@H]2CCCN2C(=O)[C@@H](Cc2ccccc2)NC(=O)[C@H](CCCN)NC(=O)[C@H](C(C)(C)C)NC(=O)[C@H](CCCN)NC(=O)[C@@H]2CCCN2C(=O)[C@@H](Cc2ccccc2)NC(=O)[C@H](CCCN)NC1=O"
  relational.operator: ">"
  MIC [µg/mL]: 64
- compound: "CCCCCCCCCC[C@@H]1NC(=O)[C@H](CCCN)NC(=O)[C@@H]2CCCN2C(=O)[C@@H](Cc2ccccc2)NC(=O)[C@H](CCCN)NC(=O)[C@H](C(C)C)NC(=O)[C@H](CCCN)NC(=O)[C@@H]2CCCN2C(=O)[C@@H](Cc2ccccc2)NC(=O)[C@H](CCCN)NC1=O"
  relational.operator: "="
  MIC [µg/mL]: 16
- compound: "NCCC[C@@H]1NC(=O)[C@H](CC23CC4CC(CC(C4)C2)C3)NC(=O)[C@H](CCCN)NC(=O)[C@@H]2CCCN2C(=O)[C@@H](Cc2ccccc2)NC(=O)[C@H](CCCN)NC(=O)[C@H](CC23CC4CC(CC(C4)C2)C3)NC(=O)[C@H](CCCN)NC(=O)[C@@H]2CCCN2C(=O)[C@@H](Cc2ccccc2)NC1=O"
  relational.operator: "="
  MIC [µg/mL]: 8
- compound: "CC(C)(C)C[C@@H]1NC(=O)[C@H](CCCN)NC(=O)[C@@H]2CCCN2C(=O)[C@@H](Cc2ccccc2)NC(=O)[C@H](CCCN)NC(=O)[C@H](CC23CC4CC(CC(C4)C2)C3)NC(=O)[C@H](CCCN)NC(=O)[C@@H]2CCCN2C(=O)[C@@H](Cc2ccccc2)NC(=O)[C@H](CCCN)NC1=O"
  relational.operator: "="
  MIC [µg/mL]: 16
- compound: "CC(C)(C)[C@@H]1NC(=O)[C@H](CCCN)NC(=O)[C@@H]2CCCN2C(=O)[C@@H](Cc2ccccc2)NC(=O)[C@H](CCCN)NC(=O)[C@H](C23CC4CC(CC(C4)C2)C3)NC(=O)[C@H](CCCN)NC(=O)[C@@H]2CCCN2C(=O)[C@@H](Cc2ccccc2)NC(=O)[C@H](CCCN)NC1=O"
  relational.operator: "="
  MIC [µg/mL]: 64
- compound: "CC(C)[C@@H]1NC(=O)[C@H](CCCN)NC(=O)[C@@H]2CCCN2C(=O)[C@@H](Cc2ccccc2)NC(=O)[C@H](CCCN)NC(=O)[C@H](C(C)C)NC(=O)[C@H](CCCN)NC(=O)[C@@H]2CCCN2C(=O)[C@@H](Cc2ccccc2)NC(=O)[C@H](CCCN)NC1=O"
  relational.operator: ">"
  MIC [µg/mL]: 64
- compound: "CC(C)[C@@H]1NC(=O)[C@H](CCCN)NC(=O)[C@@H]2CCCN2C(=O)[C@@H](Cc2ccccc2)NC(=O)[C@H](CCCN)NC(=O)[C@H](C23CC4CC(CC(C4)C2)C3)NC(=O)[C@H](CCCN)NC(=O)[C@@H]2CCCN2C(=O)[C@@H](Cc2ccccc2)NC(=O)[C@H](CCCN)NC1=O"
  relational.operator: ">"
  MIC [µg/mL]: 64
- compound: "CC(C)C[C@@H]1NC(=O)[C@H](CCCN)NC(=O)[C@H](C(C)C)NC(=O)[C@@H]2CCCN2C(=O)[C@@H](Cc2ccccc2)NC(=O)[C@H](CC(C)C)NC(=O)[C@H](CCCN)NC(=O)[C@H](C(C)C)NC(=O)[C@@H]2CCCN2C(=O)[C@@H](Cc2ccccc2)NC1=O [GRAMICIDIN S] (cyclo(L[dF]PV[Orn]L[dF]PV[Orn]))"
  relational.operator: "="
  MIC [µg/mL]: 8
